# Test system: OVCAR-3 cells
# test-name: In vitro antiproliferative effects in OVCAR-3 cells (sulforhodamine B, 72 h)
# Format: cell-based, human
# test-settings: Homo sapiens, 72 h

# compound-structure, tested-system, result-unit, IC50
data = [
    ("COc1cccc2c1C(=O)c1c(O)c3c(c(O)c1C2=O)C[C@@](O)(C(=O)CO)C[C@@H]3O[C@H]1C[C@H](N)[C@H](O)[C@H](C)O1", "OVCAR-3 cells", "nM", 120),
]
